system: purified PARP protein (Homo sapiens, UniProt P09874)
Sequence (P09874 whole entry): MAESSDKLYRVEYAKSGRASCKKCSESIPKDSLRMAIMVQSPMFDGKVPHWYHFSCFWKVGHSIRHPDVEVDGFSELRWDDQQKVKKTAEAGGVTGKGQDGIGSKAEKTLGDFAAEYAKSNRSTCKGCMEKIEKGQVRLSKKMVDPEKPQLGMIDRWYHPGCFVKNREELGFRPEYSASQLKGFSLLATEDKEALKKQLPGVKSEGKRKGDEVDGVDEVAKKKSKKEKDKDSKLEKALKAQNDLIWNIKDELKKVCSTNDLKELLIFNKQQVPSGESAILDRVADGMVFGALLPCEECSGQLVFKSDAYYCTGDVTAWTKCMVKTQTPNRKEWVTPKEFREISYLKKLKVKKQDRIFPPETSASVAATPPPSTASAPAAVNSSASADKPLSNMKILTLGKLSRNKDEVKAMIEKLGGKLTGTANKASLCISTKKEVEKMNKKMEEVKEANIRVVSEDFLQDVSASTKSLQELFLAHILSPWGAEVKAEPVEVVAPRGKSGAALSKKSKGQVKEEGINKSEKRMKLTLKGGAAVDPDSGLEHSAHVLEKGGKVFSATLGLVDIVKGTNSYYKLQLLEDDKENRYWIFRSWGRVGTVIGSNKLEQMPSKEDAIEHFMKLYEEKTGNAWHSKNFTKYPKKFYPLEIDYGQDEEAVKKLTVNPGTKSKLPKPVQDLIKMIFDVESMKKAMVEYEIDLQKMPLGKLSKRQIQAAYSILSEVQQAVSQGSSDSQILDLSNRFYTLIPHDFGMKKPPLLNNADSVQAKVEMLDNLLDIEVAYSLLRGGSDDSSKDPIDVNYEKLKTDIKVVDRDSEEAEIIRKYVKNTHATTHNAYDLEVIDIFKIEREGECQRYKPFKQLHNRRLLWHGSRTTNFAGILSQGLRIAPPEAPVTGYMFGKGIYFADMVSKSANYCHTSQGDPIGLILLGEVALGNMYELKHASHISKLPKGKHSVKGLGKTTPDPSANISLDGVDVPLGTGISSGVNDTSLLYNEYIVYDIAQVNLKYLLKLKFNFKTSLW
assayInfo: PARP enzyme inhibition assay
Format: biochemical
studyConditions: 20 nM purified PARP (5 nM for tight-binding inhibitors), 500 μM NAD+, 25° C.; several values in one cell = repeat determinations; read-out: Inhibition Constant Ki
pKi: −log10 of the molar value.
Item-by-item account of pKi
measuredAttribute: pKi

| compound | measuredAttribute | resultNumber |
| --- | --- | --- |
| CN(CCc1ccccc1)Cc1ccc(-c2nc3cccc4c3n2C[C@H](CO)NC4=O)cc1 | pKi | 8.11 |
| O=C1NCCn2c(-c3ccc(F)cc3)nc3cc(F)cc1c32 | pKi | 8.47 |
| NC(=O)c1c(-c2ccc(F)cc2)n2c3c(cccc13)C(=O)NCC2 | pKi | 6.70 |
| CNCc1ccc(-c2nc3cccc4c3n2CCNC4=O)cc1 | pKi | 8.72 |
| O=C1NCCn2c(-c3ccc(CN4CC[S+]([O-])CC4)cc3)nc3cccc1c32 | pKi | 8.15 |
| CC(C)CC(c1ccc(-c2nc3cccc4c3n2CCNC4=O)cc1)N(C)C (centres unmarked) | pKi | 8.16 |
| O=C1NCCn2c(-c3ccc(C4CCNCC4)cc3)nc3cccc1c32 | pKi | 8.27 |
| CN(CCc1cc2ccccc2[nH]1)Cc1ccc(-c2nc3cccc4c3n2CCNC4=O)cc1 | pKi | 8.38 |

----------
system: UniProtKB P09874
assayInfo: PARP enzyme inhibition assay
Format: biochemical
studyConditions: 20 nM purified PARP (5 nM for tight-binding inhibitors), 500 μM NAD+, 25° C.; several values in one cell = repeat determinations; read-out: Inhibition Constant Ki
pKi: −log10 of the molar value.

| compound | pKi |
| --- | --- |
| O=C1NCCn2c(-c3ccc(C(O)Cc4ccccc4)cc3)nc3cccc1c32 (centres unmarked) [Example 247a] | 8.00 |
| CN(C)Cc1ccc(-c2cc3cc(F)cc4c3n2CCNC4=O)cc1 [Example 170] | 8.51 |
| CN(C)Cc1ccc(-c2nc3cc(F)cc4c3n2CCNC4=O)cc1 [Example 99] | 8.77 |
| CN(CCc1ccccn1)Cc1ccc(-c2nc3cccc4c3n2CCNC4=O)cc1 [Example 202] | 8.49 |
| O=C1NCCn2c(-c3ccc(CNCCc4ccc(F)cc4)cc3)nc3cccc1c32 [Example 185] | 8.25 |
| O=C1NCCn2c(-c3ccco3)nc3cccc1c32 [Example 20] | 7.92 |
| CN(C)Cc1ccc(-c2nc3cccc4c3n2CCNC4=O)cc1 [Example 58] | 8.24 |
| CN(C)Cc1cccc(-c2cc3cccc4c3n2CCNC4=O)c1 [Example 86] | 8.04 |

----------
| molecule | melting point |
| --- | --- |
| O=C1NCCn2c(-c3ccc(-c4cccnc4)cc3)nc3cccc1c32 [Example 134] | 284 to 286 °C |
| O=C1NCCn2c(-c3ncc[nH]3)nc3cccc1c32 [Example 80] | 227 to 228 °C (dec.) |
| N#Cc1cccc(-c2nc3cccc4c3n2CCNC4=O)c1 [Example 73] | 283 to 284 °C (dec.) |
| O=C1NCCn2c(-c3cccc(Oc4cccnc4)c3)nc3cccc1c32 [Example 16] | 223 to 225 °C |

----------
system: purified PARP protein (Homo sapiens)
assayInfo: PARP enzyme inhibition assay
Type: biochemical
studyConditions: 20 nM purified PARP (5 nM for tight-binding inhibitors), 500 μM NAD+, 25° C.; several values in one cell = repeat determinations; read-out: Inhibition Constant Ki

| smilesRepr | Ki |
| --- | --- |
| O=C1NCCn2c(C34CC5CC(CC(C5)C3)C4)nc3cccc1c32 | 9.5 nM |
| CS(=O)(=O)c1nc2cccc3c2n1CCNC3=O | 6.8 nM |
| CN(C)CCOc1ccc(-c2nc3cccc4c3n2CCNC4=O)cc1 | 8 nM |
